Tested on: SK-MEL-28 melanoma
Test: NCI tumour cell line growth inhibition, 48 h
The entries below are paired with their reported TGI.
endpointLabel: TGI

compound	val
COc1cc2c(cc1OCCCOS(C)(=O)=O)N=C[C@@H]1CCCN1C2=O	> 100 µM
O=C1[C@@H]2C(c3ccccc3[N+](=O)[O-])=[N+](c3ccccc3)O[C@@H]2C(=O)N1c1ccc(Cc2ccc(N3C(=O)[C@H]4C(c5ccccc5[N+](=O)[O-])=[N+](c5ccccc5)O[C@H]4C3=O)cc2)cc1	> 100 µM
CCCCCCCCC/C(=N\NC(=O)c1ccncc1)c1ccc(O)c(O)c1O	> 100 µM
COc1cc2c(cc1Cc1cccc(Cl)c1F)c(=O)c(C(=O)O)cn2[C@@H](CO)C(C)C	21.9 µM
Nc1nc(N)c(-c2ccccc2)c(C(=O)Nc2ccccc2)n1	> 100 µM
c1ccc(C(NC2=NCCO2)c2ccccc2)cc1	> 10 µM
OCCCNc1ccnc2cc(Cl)ccc12	> 100 µM
O=[N+]([O-])c1ccc(Oc2c(Cl)cc(S(=O)(=O)/N=C(\NO)Nc3ccc(Cl)cc3)cc2Cl)c(Cl)c1	47.6 µM
O=c1[nH]nc(Cc2ccccc2)n1CCCl	> 100 µM
COc1ccc(OC)c(C2CCc3c(cnc4nc(N)nc(N)c34)C2)c1 (stereo unspecified)	29.4 µM
O=C(NCc1cccnc1)C1COc2cc(-c3cc(=O)c4ccccc4o3)ccc2O1 (stereo unspecified)	> 28.7 µM
C#CCN(Cc1nc2cc(C(F)(F)F)ccc2nc1-c1ccccc1)c1ccc(C)cc1	> 41 µM
C[C@]12CC[C@@H]3c4cc(O)c(O)cc4CC[C@H]3[C@@H]1CC[C@@H]2O	> 100 µM
O=C(c1nc2ccccc2[nH]c1=O)C(O)c1ccco1 (stereo unspecified)	> 100 µM
N#Cc1ccc(CSC2=C(c3ccc(Cl)cc3)S/C(=C3\SC(SCc4ccc(C#N)cc4)=C(c4ccc(Cl)cc4)S3)S2)cc1	> 100 µM
O=C1CC2(CCC3=C(O2)c2ccccc2NC(=O)C3)C(=O)c2ccccc2N1 (stereo unspecified)	> 100 µM
CCCCNC(=O)C1C(=O)N(CCCC)C(=O)/C1=N\N (stereo unspecified)	> 100 µM
N#CC1=C(c2ccccc2)C(=C2Nc3ccccc3N2)C2S/C(=C\c3ccccc3)C(=O)N2C1=N (stereo unspecified)	10.5 µM
COc1ccc2c(c1)CC[C@@H]1[C@@H]2CC[C@]2(C)c3c(cc(C(=O)O)c4sccc34)C[C@@H]12	33.4 µM
CCNC(=O)Nc1ccc(Oc2ccnc3ccc4c(ccn4C)c23)cc1	> 100 µM
Clc1ccc(CCn2cncn2)cc1	> 100 µM
COc1ccc2c(c1)oc(=O)c1cc(OC)ccc12	> 100 µM
C[Si](C)(N[Si](C)(C)OCCc1ccccc1)OCCc1ccccc1	> 100 µM
COC(=O)C1=COC(C)C2CN3CCc4c([nH]c5cc(OC)c(OC)cc45)C3CC12 (stereo unspecified)	> 100 µM
O=C1/C(=C/c2ccco2)N=C2Sc3c(nc[nH]c3=O)N12	> 100 µM
CNC(=O)NCCN1CC2CCC(CC2)C1	> 10 µM
COc1cc(/C=N\c2nc(-c3ccc(NS(=O)(=O)c4ccc(Cl)c(OC)c4)cc3)cs2)ccc1O	> 100 µM
COc1ccc(Cc2c(=O)[nH]nc3ccccc23)cc1	> 100 µM
COC(=O)c1ccccc1CC(Cc1ccc2c(c1)CCC2)C(=O)OC (stereo unspecified)	> 100 µM
CC1=NNC(=O)C1C1CC(c2c[nH]c3ccccc23)=NN(C(N)=O)C1=O (stereo unspecified)	> 100 µM
N#Cc1cc([N+](=O)[O-])ccc1NC(=O)/C(=N\NC(=O)c1ccncc1)C(c1cnc2ccc([N+](=O)[O-])cc2n1)[N+](=O)[O-] (stereo unspecified)	4.81 µM
O=C(OC1CCC2OOC1O2)c1ccc([N+](=O)[O-])cc1 (stereo unspecified)	> 100 µM
COc1ccc(Sc2nc3cc(N)cc(N)c3nc2-c2ccccc2)cc1	> 100 µM
CC(=O)Nc1c(I)c(NC(C)=O)c(I)c(C(=O)O)c1I	> 100 µM
COc1ccc(Cn2cc3c(c2-c2ccccc2)CCc2cnoc2-3)cc1OC	> 100 µM
C=C1C(=O)O[C@H]2[C@H]1CC/C(C=Nc1c(N)cc(C(F)(F)F)cc1C(F)(F)F)=C\CC[C@@]1(C)O[C@@H]21	3.83 µM
Cc1cc(C)c(O)c(CN2CCN(C(C)C)CCN(C(C)C)CC2)c1	72.8 µM
Cn1nc(C(F)(F)F)cc1-c1c[nH]c(OCc2ccc(Cl)cc2)c(-c2ccc(Cl)c(C(F)(F)F)c2)c1=O	3.97 µM
C/C(CC(=O)Nc1cc(C)ccc1C)=N/N=C(N)N	> 100 µM
O=C1C=CC(=O)c2c1ccc1c3ccccc3n(-c3ccccc3)c21	14.4 µM
Cc1ccc(C(c2c(O)c3ccccc3n(-c3ccccc3)c2=O)c2c(O)c3ccccc3n(-c3ccccc3)c2=O)cc1	> 100 µM
